Tested target: M.tb PGDH Y461A (Mycobacterium tuberculosis, UniProt P9WNX3, Y460A)
Metric: pKi
Please express pKi as -log10 of the molar concentration.

## Task Record request: pKi value, item O=C(O)C(=O)COP(=O)(O)O [HPAP, hydroxypyruvic acid phosphate]
## Result 3.38

====

Tested target: M.tb PGDH G317V (Mycobacterium tuberculosis, UniProt P9WNX3, G316V)
Metric: pKi
Recall that pKi is obtained by taking minus log10 of the concentration measured in molar.

## Task Would you kindly share the measured pKi for O=C(O)C(=O)COP(=O)(O)O [HPAP, hydroxypyruvic acid phosphate] ?
## Result 2.95
